Target: Adenosine receptor A2a (Homo sapiens, UniProt P29274)
Sequence (P29274 whole entry): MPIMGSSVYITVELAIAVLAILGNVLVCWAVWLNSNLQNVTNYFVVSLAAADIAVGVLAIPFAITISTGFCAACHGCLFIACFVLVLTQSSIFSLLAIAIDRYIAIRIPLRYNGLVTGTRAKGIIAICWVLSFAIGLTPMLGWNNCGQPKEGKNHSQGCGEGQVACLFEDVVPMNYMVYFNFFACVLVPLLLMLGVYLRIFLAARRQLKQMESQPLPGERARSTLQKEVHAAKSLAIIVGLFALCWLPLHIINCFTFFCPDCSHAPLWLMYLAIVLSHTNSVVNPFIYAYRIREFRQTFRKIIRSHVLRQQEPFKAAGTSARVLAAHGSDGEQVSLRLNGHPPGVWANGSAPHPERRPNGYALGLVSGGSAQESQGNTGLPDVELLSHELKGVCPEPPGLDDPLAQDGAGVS
Test: Displacement of [3H]ZM-241385 from human adenosine A2A receptor expressed in HEK293 cells
Assay type: cell-based
metric: Ki

smi: O=C(Nc1cc(-c2ccccc2)nc(-c2ccccc2)n1)C1CCCCC1
Ki: 208 nM (antagonist)
//
smi: CC(C)C(=O)Nc1cc(-c2ccccc2)nc(-c2ccccc2)n1
Ki: 376 nM (antagonist)
//
smi: CCCC(=O)Nc1cc(-c2ccccc2)nc(-c2ccccc2)n1
Ki: 124 nM (antagonist)
//
smi: O=C(Nc1cc(-c2ccccc2)nc(-c2ccccc2)n1)C1CCC1
Ki: 179 nM (antagonist)

Task: State the recorded Ki for this entry: O=C(Nc1nc(-c2ccccc2)cc(-c2ccccc2)n1)C1CC1
Result: 228 nM (antagonist)

Task: Tell me the measured Ki of O=C(Nc1cc(-c2ccccc2)nc(-c2ccccc2)n1)C1CC1 , please.
Result: 189 nM (antagonist)

Task: Quick check: Ki of O=C(Nc1cc(-c2ccccc2)nc(-c2ccccc2)n1)C1CCCC1 ?
Result: 196 nM (antagonist)
